B1: CPEB3 Ribozyme (parent)
chain: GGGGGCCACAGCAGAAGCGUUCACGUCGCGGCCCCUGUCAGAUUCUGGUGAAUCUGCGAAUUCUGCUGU

variants of: B1; assay: self-cleavage, relative activity (ratio to wild type); higher = more cleavage; co-transcriptional
Measurement Label: self-cleavage

Here are 10 variants together with their reported answers.
INSERT INTO results (variant_annotation, assay_value) VALUES
  ('C29G C57G', 0.183),
  ('G2U C32U', 0.113),
  ('G37U A52U', 0.317),
  ('G50A G65A', 0.901),
  ('A42C U43G', 0.703),
  ('U20A G28A', 0.12),
  ('A52U U69C', 1.05),
  ('A8G U38C', 0.696),
  ('U43G U62G', 0.468),
  ('A23G A60U', 0.385);

Now examine the next entry.
# lookup: self-cleavage of G5C C57A
0.0507
